Field: GI50. Provide a value for each of the compounds that follow.
- Test system: UO-31
- Test summary: NCI tumour cell line growth inhibition, 48 h
Calls of active or inactive are those of the source. Cut-off read from the data, not from the text of the source: active = GI50 up to about 1.1 µM and inactive = higher.

Please give GI50 for each item listed below.
1. O=c1c2cccnc2ncn1CCN1CCCC1
2. C1=CC=C2NCCOCC/N=C3/C=CC=CC=C3NCCOCC/N=C\2C=C1
3. COC(=O)c1c(C)[nH]c2c1cc(O)c1nc(C)c(C)nc12
4. O=C1NC(=O)C(C(CC(=O)c2ccc(Cl)cc2)c2ccc(Cl)cc2)C(=O)N1 (stereo unspecified)
5. OCC1OC(n2nc(-c3ccccc3)nc2-c2cnccn2)C(O)C(O)C1O (stereo unspecified)

Completion:
["> 100 µM (inactive)", "> 100 µM (inactive)", "> 100 µM (inactive)", "> 100 µM (inactive)", "> 100 µM (inactive)"]

List GI50 for every entry below, keeping the order given.
1. O=C(OCCN=c1c2ccccc2ccc2ccccc12)c1cc([N+](=O)[O-])cc([N+](=O)[O-])c1
2. COC(=O)CCc1cc(OC)c(O)c(C(Cc2ccc(OC)c(OC)c2)C(=O)OC)c1 (stereo unspecified)
3. C=CCOCn1ccc(NC(=O)c2ccccc2)nc1=O
4. CCOC(=O)c1sc2nc(SC)nc3c2c1NC(=O)CN3c1ccc(F)cc1
5. COc1ccc(N2C=Nn3c(nc4sc(C)c(C)c4c3=O)C2)cc1

Completion:
> 100 µM (inactive)
> 100 µM (inactive)
> 100 µM (inactive)
18 µM (inactive)
> 100 µM (inactive)

# per-item lookup of GI50; items listed below
1. C=C(CC[C@@H](C(=O)O)[C@H]1[C@H](O)C[C@@]2(C)C3=CC[C@@H](C(=C)C)[C@](C)(CCC(=O)O)C3=CC[C@]12C)C(C)C
2. NCCCN1CCN(CC(=O)O)CCN(CCCN)CCN(CC(=O)O)CC1
3. COc1cc2c[n+](C)c3c4cc(OC)c(OC)cc4ccc3c2cc1OC
4. CC1(O)C(C)(O)C(C)(O)C1(C)O (stereo unspecified)
5. Cc1c(-c2ccccc2)c(C#N)c2nnn(-c3ccccc3)c(=O)n12

Completion:
["17.2 µM (inactive)", "> 34.3 µM (inactive)", "> 100 µM (inactive)", "> 100 µM (inactive)", "> 100 µM (inactive)"]

List reported GI50 for each of these compounds:
1. COC(=O)c1cc(OS(=O)(=O)C(F)(F)F)c(=O)n2c1CCCC2
2. CCCCC#COS(=O)(=O)c1ccc(C)cc1
3. Cc1ccc(-c2cc(-c3cc(-c4ccc(C)cc4C)[nH]n3)[nH]n2)c(C)c1

Completion:
1: > 100 µM (inactive); 2: > 100 µM (inactive); 3: 23 µM (inactive)

###

- System: SNB-75
- Test summary: NCI tumour cell line growth inhibition, 48 h
The source made the active and inactive calls. Cut-off read from the data, not from the text of the source: active = GI50 up to about 1.1 µM and inactive = higher.
In this exercise, the only acceptable responses are active, inactive

Please review the entries below; each comes with its answer.
NNC1=Nc2ccc(Cl)cc2C(=S)N2CSCC12 (stereo unspecified); inactive
ClC1=C(Cc2ccccc2)Cc2ccc3c(c21)CCC3; inactive
CCOC(=O)c1ncoc1[C@H]1COC(C)(C)O1; inactive

Let's switch to this molecule now.
Prompt: Please state the recorded outcome for this molecule: Nc1ccc2nc3n(c2c1)C(c1c(F)cccc1F)SC3 (stereo unspecified)
Completion: inactive

###

- System: TK-10
- Test summary: NCI tumour cell line growth inhibition, 48 h
The source made the active and inactive calls. No stated cut-off is given here; in the data, active = GI50 up to about 1.1 µM and inactive = higher.
Please provide measured GI50 for the entries that follow.

Hey, can you go through the list below and give me GI50 for every item?
1. Cc1ccc(Cc2nn(C)c(=O)n2-n2cccc2)cc1
2. Cc1ccc(/N=N/c2c(O)ccc3cc(S(=O)(=O)O)ccc23)cc1
3. CN(C)C(=C1C(Br)=C(Br)C(Br)=C1Br)N(C)C
4. O=C1C(=O)N(c2cc(Cl)ccc2Cl)C(=O)C(=O)C1c1nc2ccccc2o1
5. CCOC(=O)c1sc2nc(SC)nc3c2c1NC(=O)CN3c1ccc(F)cc1

Completion:
["> 100 µM (inactive)", "> 100 µM (inactive)", "> 100 µM (inactive)", "> 100 µM (inactive)", "30.7 µM (inactive)"]

Prompt: What value of GI50 on TK-10 does O=C1c2ccccc2-c2nc(-c3ccccc3)cc3c2c1nc1ccccc13 have?
Completion: 15.3 µM (inactive)

###

- Test system: XF498
- Test summary: NCI tumour cell line growth inhibition, 48 h
Active and inactive are the calls of the source. No stated cut-off is given here; in the data, active = GI50 up to about 1.1 µM and inactive = higher.
Task for the reader: assign each of the following compounds its reported GI50.

Examples from the recorded data:
c1cc2c(cnc3cscc32)s1; 11 µM (inactive)
COc1ccc(C)cc1C1CCC(=O)O1 (configuration not stated); 63.8 µM (inactive)
COCCOCCOCCOc1cccc2c1C(=O)c1cccc(OCCOCCOCCOC)c1C2=O; > 100 µM (inactive)

Could you report GI50 for every entry in the following list?
1. C/C(=C\c1ccccc1)C(O)C(=O)c1nc2ccc(Cl)cc2nc1O (configuration not stated)
2. CC1NOC(=O)C1/N=N/c1ccccc1Cl (configuration not stated)
3. BrC1=CCC23CC=C(Br)[C@H]4CC2(COC3)C[C@@H]1O4 (some centres not stated)
4. Cc1nc(-c2nc([N+](=O)[O-])c([N+](=O)[O-])[nH]2)cs1
5. CC(=O)NNc1nc(C)c(C(=O)NNC(=O)C(=O)Nc2ccc(Cl)cc2)s1
6. Cc1nc(N)nn1C1OCC(O)C(O)C1O (configuration not stated)

Completion:
1. 92 µM (inactive)
2. 27.9 µM (inactive)
3. 76.6 µM (inactive)
4. > 100 µM (inactive)
5. > 100 µM (inactive)
6. > 100 µM (inactive)

###

Consider the following compounds; for each one, report its GI50.
- System: SF-268
- Test summary: NCI tumour cell line growth inhibition, 48 h
Activity calls are given as the source filed them. No stated cut-off is given here; in the data, active = GI50 up to about 1.1 µM and inactive = higher.

Here's what some known entries look like.
O=C(c1ccccc1)c1c(CC(O)c2ccccn2)n(C(=O)c2ccccc2)c2ccccc12 (centres undefined); 28.3 µM (inactive)
Cn1cc(-c2ccc3c4ccccc4n(C)c3c2)c2ccccc21; > 100 µM (inactive)
ClC1=C(Cc2ccccc2)Cc2ccc3c(c21)CCC3; 33.2 µM (inactive)

Would you be so kind as to report GI50 for each listed record?
1. C=C(C)C(O)C(O)C[C@@H](C)C1CC[C@]23C[C@]12CCC1[C@@]2(C)CCC(OC(C)=O)C(C)(C)C2CC(OC2OC(CO)C(O)C(O)C2O)[C@]13C (some centres undefined)
2. CC(=O)NNc1nc(C)c(C(=O)NNC(=O)C(=O)Nc2ccc(Cl)cc2)s1

Completion:
18.3 µM (inactive)
49.7 µM (inactive)

List GI50 for every entry below, keeping the order given.
1. CCOC(=O)C(NC(=O)c1nc[nH]c1/N=N/N(C)C)C(C)C (centres undefined)
2. CCCCCCCCCCCCCCN [TETRADECYLAMINE]
3. Nc1nc(-c2ccccc2)cc(-c2ccc(F)cc2)c1-c1ccc(Cl)cc1
4. CC1(C)CCc2cc3c(cc2O1)OC(C)(C)C1c2c(ccc4c2CCC(C)(C)O4)OC31 (centres undefined)

Completion:
1: > 100 µM (inactive); 2: > 100 µM (inactive); 3: > 100 µM (inactive); 4: > 100 µM (inactive)

###

- Tested on: SW-620
- Test summary: NCI tumour cell line growth inhibition, 48 h
Calls of active or inactive are those of the source. No stated cut-off is given here; in the data, active = GI50 up to about 1.1 µM and inactive = higher.
Give GI50 for every item shown.

CC(C)CNC(=O)Cn1c2c(c3ccccc31)CCCC2; > 100 µM (inactive)
O=c1ccn(C2(CO)C=C(CO)C(O)C2O)c(=O)[nH]1 (stereo not given); > 25.7 µM (inactive)
O=c1c(/C=C/c2c(O)ccc3ccccc23)nnc2sc(-c3cccc(Br)c3)nn12; 25.6 µM (inactive)

// each molecule listed below needs its GI50
1. C=CCCCC1CCCNC1=S (stereo not given)
2. c1ccc(Nc2nnc(-c3ccccc3Nc3ccccc3-c3nnc(Nc4ccccc4)s3)s2)cc1
3. C[N+](C)(C)CC1CCc2ccccc2C1=O (stereo not given)
4. CCOC(=O)c1cc(C(=O)c2ccccc2)n2nc(-c3ccc(Cl)cc3)ccc12
5. O=C(CC(=O)N1N=C(N2CCCCC2)CC1c1ccccc1)Nc1ccc(Cl)cc1 (stereo not given)

Completion:
["> 100 µM (inactive)", "> 100 µM (inactive)", "1.68 µM (inactive)", "93.8 µM (inactive)", "> 100 µM (inactive)"]

// batch mode: one GI50 value per listed entry
1. Cc1c(-c2nc3ccccc3[nH]2)c(=O)n(-c2ccccc2)n1C
2. C=C1[C@@](C)([C@@H]2CCCS2)[C@H]2C(C)=C[C@]1(C)n1c(=O)n(-c3ccccc3)c(=O)n12

Completion:
["> 100 µM (inactive)", "> 100 µM (inactive)"]
